assay: Selectivity index, ratio of IC50 for african green monkey Vero cells to MIC90 for Mycobacterium tuberculosis H37Rv; assay type: toxicity, cell-based; conditions: read-out: Selectivity Index
// reported selectivity ratio for each item listed
Format: numeric value only, no unit, no commentary.

Form: compound = CO[C@H]1/C=C/O[C@@]2(C)Oc3c(C)c(O)c4c(O)c(c(/C=N/N5CCN(C)CC5)c(O)c4c3C2=O)NC(=O)/C(C)=C\C=C\[C@H](C)[C@H](O)[C@@H](C)[C@@H](O)[C@@H](C)[C@H](OC(C)=O)[C@@H]1C ; selectivity ratio = 1170

Form: compound = COc1c(C)c(C[C@@H](C)OC(C)=O)c2[nH]c3ccc(Br)cc3c2c1OC(C)=O ; selectivity ratio = 0.5
